Would you kindly list Enzyme assays, % conversion, Tar14, Br^− for each of these compounds?
# Tested on: Tar14
# measurementNotes: Tar14 in vitro halogenation assay with substrate analogues
# Assay type: biochemical, Saccharomonospora sp. CNQ-490
# conditionInfo: KBr 100 mM; substrate 0.25 mM; Tar14 5 μM; 30° C., 4 h

Sample "N[C@@H](Cc1c[nH]c2cccc(F)c12)C(=O)O" — what was its Enzyme assays, % conversion, Tar14, Br^−?
15%

Sample "N[C@@H](Cc1c[nH]c2cccc(Br)c12)C(=O)O" — what was its Enzyme assays, % conversion, Tar14, Br^−?
<5%

Sample "N[C@@H](Cc1c[nH]c2cc(Br)ccc12)C(=O)O" — what was its Enzyme assays, % conversion, Tar14, Br^−?
<1%

Sample Nc1cc(Cl)ccc1C(=O)CC(N)C(=O)O (stereo not drawn) — what was its Enzyme assays, % conversion, Tar14, Br^−?
5%

Sample "Cc1cccc2[nH]cc(C[C@H](N)C(=O)O)c12" — what was its Enzyme assays, % conversion, Tar14, Br^−?
75%

Sample "N[C@@H](Cc1c[nH]c2ccccc12)C(=O)O" — what was its Enzyme assays, % conversion, Tar14, Br^−?
100%

Sample "N[C@@H](Cc1c[nH]c2cc(F)ccc12)C(=O)O" — what was its Enzyme assays, % conversion, Tar14, Br^−?
25%

Sample "N[C@H](Cc1c[nH]c2ccccc12)C(=O)O" — what was its Enzyme assays, % conversion, Tar14, Br^−?
20%

Sample "N[C@@H](Cc1c[nH]c2cc(Cl)ccc12)C(=O)O" — what was its Enzyme assays, % conversion, Tar14, Br^−?
<5%

Sample "Nc1ccccc1C(=O)C[C@H](N)C(=O)O" — what was its Enzyme assays, % conversion, Tar14, Br^−?
30%

Sample "N[C@@H](Cc1c[nH]c2ccc(Cl)cc12)C(=O)O" — what was its Enzyme assays, % conversion, Tar14, Br^−?
<1%

Sample "Cc1ccc2[nH]cc(C[C@H](N)C(=O)O)c2c1" — what was its Enzyme assays, % conversion, Tar14, Br^−?
25%

###

# Tested on: Tar13
# measurementNotes: Tar13 in vitro assay with substrate analogues
# Type: biochemical, Saccharomonospora sp. CNQ-490
# conditionInfo: substrate 0.25 mM; Tar13 20 μM; overnight at 30° C.
Would you kindly list Enzyme assays, % conversion, Tar13 for each of these molecules?
# unit: % | format: bare number

Sample "N[C@@H](Cc1c[nH]c2cc(F)ccc12)C(=O)O" — what was its Enzyme assays, % conversion, Tar13?
5

Sample "N[C@@H](Cc1c[nH]c2ccccc12)C(=O)O" — what was its Enzyme assays, % conversion, Tar13?
15

Sample "N[C@@H](Cc1c[nH]c2cc(Br)ccc12)C(=O)O" — what was its Enzyme assays, % conversion, Tar13?
100

Sample "N[C@@H](Cc1c[nH]c2cc(Cl)ccc12)C(=O)O" — what was its Enzyme assays, % conversion, Tar13?
100

###

# Tested on: S. coelicolor M1146-tarM1Δtar14
# measurementNotes: Feeding/chemical complementation experiment, incorporation into taromycin
# Type: cell-based, Streptomyces coelicolor
# conditionInfo: incorporation only at residue-1; analogue fed at 2 mM; judged by comparison to taromycin yields by S. coelicolor M1146-tarM1
# Procedure: For taromycin production, seed culture in TSBY medium was inoculated with corresponding S. coelicolor spore suspension (collected from fresh SFM plates) and was cultured for 36-48 h till a dense creamy consistency was reached. Kanamycin at 10 μg mL^−1 final concentration was added to the seed cultures of S. coelicolor M1146-pCAP01-tarM1 and S. coelicolor M1146-pCAP01-tarM1Δtar14. […]
measuredProperty: Feeding, % incorporation, A1 domain (%)
# unit: % | format: bare number

// fetch S. coelicolor M1146-tarM1Δtar14 Feeding, % incorporation, A1 domain for "N[C@@H](Cc1c[nH]c2ccc(Br)cc12)C(=O)O"
50

// fetch S. coelicolor M1146-tarM1Δtar14 Feeding, % incorporation, A1 domain for "Cc1cccc2[nH]cc(C[C@H](N)C(=O)O)c12"
40

// fetch S. coelicolor M1146-tarM1Δtar14 Feeding, % incorporation, A1 domain for "Cc1ccc2[nH]cc(C[C@H](N)C(=O)O)c2c1"
35

// fetch S. coelicolor M1146-tarM1Δtar14 Feeding, % incorporation, A1 domain for NC(Cc1c[nH]c2ccc([N+](=O)[O-])cc12)C(=O)O (stereo not shown)
60

// fetch S. coelicolor M1146-tarM1Δtar14 Feeding, % incorporation, A1 domain for "N[C@@H](Cc1c[nH]c2cccc(F)c12)C(=O)O"
15

// fetch S. coelicolor M1146-tarM1Δtar14 Feeding, % incorporation, A1 domain for "N[C@@H](Cc1c[nH]c2ccc(Cl)cc12)C(=O)O"
30

These measurements were taken from patent US20220290196A1.
